- procedureDetails: Drug concentration in athymic Nu/Nu mouse plasma xenografted with human HCT-116 cells transfected with luciferase at 20 mg/kg, ip administered daily for 10 days by HPLC analysis
- Type: ADME, organism-based
- measurementContext: time 10 day, read-out: Drug uptake
measure: concentration at 240 h (µg/mL)
Express your answer in µg/mL, writing the number without its unit.

Qu. Answer with the recorded concentration at 240 h for the compound listed here: COC(=O)C[C@H]1[C@]2(C)C3=C(C)[C@H](c4ccoc4)C[C@H]3O[C@@H]2[C@@H]2OC(=O)[C@]3(C)C=CC(=O)[C@@]1(C)[C@@H]23 [NIMBOLIDE]
Ans. 0.409

* * *

- procedureDetails: Oral bioavailability in Sprague-Dawley rat at 50 mg/kg measured upto 72 hrs
- Format: ADME, organism-based
- measurementContext: in vivo
measure: bioavailability (%)
Expressed in %, but write only the number.

Qu. Give bioavailability for COC(=O)C[C@H]1[C@]2(C)C3=C(C)[C@H](c4ccoc4)C[C@H]3O[C@@H]2[C@@H]2OC(=O)[C@]3(C)C=CC(=O)[C@@]1(C)[C@@H]23 [NIMBOLIDE]
Ans. 3.06

* * *

- procedureDetails: Acute toxicity in ip dosed Syrian golden hamster assessed as lethal dose
- Type: organism-based, Mesocricetus auratus
- measurementContext: in vivo
measure: LD50
Don't forget the unit after the value.

Qu. Retrieve LD50 measured for COC(=O)C[C@H]1[C@]2(C)C3=C(C)[C@H](c4ccoc4)C[C@H]3O[C@@H]2[C@@H]2OC(=O)[C@]3(C)C=CC(=O)[C@@]1(C)[C@@H]23 [NIMBOLIDE] and print it.
Ans. 500 mg/kg

The origin of these recorded values is ChEMBL document CHEMBL5233272.
